# Test system: UACC-812 (Breast Carcinoma)
# assay-explanation: Bliss excess, mean over the matrix (fraction); higher = more synergy;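 further: after 72 h of two-drug dosing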
measured-metric: Bliss excess

molecule: C=CCn1c(=O)c2cnc(Nc3ccc(N4CCN(C)CC4)cc3)nc2n1-c1cccc(C(C)(C)O)n1 [AZD1775] + C[C@@H]1COCCN1C2=NC(=NC(=C2)C3(CC3)[S@](=N)(=O)C)C4=C5C=CNC5=NC=C4 [AZD6738] (first compound max 1 µM, partner max 10 µM)
system-under-test: UACC-812 (Breast Carcinoma)
Bliss excess: 0.0176

The record that follows has no Bliss excess shown yet.
Input line: Look at this molecule and give its reported Bliss excess. Cn1cnc2c(F)c(Nc3ccc(Br)cc3Cl)c(C(=O)NOCCO)cc21 [Selumetinib] + CC(C)n1c(=O)n(C)c2cnc3cc(F)c(-c4ccc(OCCCN5CCCCC5)nc4)cc3c21 [AZD1390] (first compound max 10 µM, 7x7, partner max 0.3 µM)
Output line: -0.0436

----------
# System: JHH-2 (Hepatocellular Carcinoma)
# assay-explanation: Bliss excess, mean over the matrix (fraction); higher = more synergy
measured-metric: Bliss excess

compound: CN(CCO)CC[C@H](CSc1ccccc1)Nc1ccc(S(=O)(=O)NC(=O)c2ccc(N3CCC([C@@H](O)c4ccccc4-c4ccc(Cl)cc4)CC3)cc2)cc1S(=O)(=O)C(F)(F)F [AZD4320] + CN(C)CCCOc1ccc(-c2ccc3ncc4c(c3c2)n(C2CCOCC2)c(=O)n4C)cn1 [AZD0156] (first compound max 1 µM, 7x7, partner max 1 µM)
system-under-test: JHH-2 (Hepatocellular Carcinoma)
reported-result: -0.0486
//
compound: O=C(c1cc(Cc2n[nH]c(=O)c3ccccc23)ccc1F)N1CCN(C(=O)C2CC2)CC1 [Olaparib] + CN(CC[C@H](CSC1=CC=CC=C1)NC2=C(C=C(C=C2)S(=O)(=O)NC(=O)C3=CC=C(C=C3)N4CCC(CC4)[C@H](C5=CC=CC=C5C6=CC=C(C=C6)Cl)O)S(=O)(=O)C(F)(F)F)CCO [AZD4320] (first compound max 10 µM, 7x7, partner max 1 µM)
system-under-test: JHH-2 (Hepatocellular Carcinoma)
reported-result: -0.0363
//
compound: NC1(C(=O)N[C@@H](CCO)c2ccc(Cl)cc2)CCN(c2ncnc3[nH]ccc23)CC1 [Capivasertib] + C[C@@H]1COCCN1C2=NC(=NC(=C2)C3(CC3)[S@](=N)(=O)C)C4=C5C=CNC5=NC=C4 [AZD6738] (first compound max 10 µM, 7x7, partner max 10 µM)
system-under-test: JHH-2 (Hepatocellular Carcinoma)
reported-result: -0.0651
//
compound: CN(C)CCCOc1ccc(-c2ccc3ncc4c(c3c2)n(C2CCOCC2)c(=O)n4C)cn1 [AZD0156] + O=C(c1cc(Cc2n[nH]c(=O)c3ccccc23)ccc1F)N1CCN(C(=O)C2CC2)CC1 [Olaparib] (first compound max 3 µM, partner max 3 µM)
system-under-test: JHH-2 (Hepatocellular Carcinoma)
reported-result: 0.0203
//
compound: C[C@@H](c1ccc2nccn2c1)n1nnc2ncc(-c3cnn(C)c3)nc21 [Savolitinib] + CC1(C)CCC(CN2CCN(c3ccc(C(=O)NS(=O)(=O)c4ccc(NCC5CCOCC5)c([N+](=O)[O-])c4)c(Oc4cnc5[nH]ccc5c4)c3)CC2)=C(c2ccc(Cl)cc2)C1 [Venetoclax] (first compound max 1 µM, 7x7, partner max 1 µM)
system-under-test: JHH-2 (Hepatocellular Carcinoma)
reported-result: -0.0705

The record that follows has no Bliss excess shown yet.
Input line: Look at this compound and give its reported Bliss excess. CN(CCO)CC[C@H](CSc1ccccc1)Nc1ccc(S(=O)(=O)NC(=O)c2ccc(N3CCC([C@@H](O)c4ccccc4-c4ccc(Cl)cc4)CC3)cc2)cc1S(=O)(=O)C(F)(F)F [AZD4320] + CC(=O)O[C@H]1C(=O)[C@@]2(C)[C@H]([C@H](OC(=O)c3ccccc3)[C@]3(O)C[C@H](OC(=O)[C@H](O)[C@@H](NC(=O)c4ccccc4)c4ccccc4)C(C)=C1C3(C)C)[C@]1(OC(C)=O)CO[C@@H]1C[C@@H]2O [Paclitaxel] (first compound max 1 µM, 7x7, partner max 3 µM)
Output line: -0.0037
